System Name: human GST-AMPK α2β1γ1 (Homo sapiens, UniProt P54646+Q9Y478)
Construct: triply transfected with full-length AMPK α1 or α2 (NH2-terminal GST fusion, pDEST27 vector); full-length AMPK α1 or α2 (NH2-terminal GST fusion, pDEST27 vector), β1 or β2 (COOH-terminal FLAG fusion, pcDNA3.1 vector); FLAG (C)
Sequence (Q9Y478 whole entry, one chain of several, the tested form may be a part): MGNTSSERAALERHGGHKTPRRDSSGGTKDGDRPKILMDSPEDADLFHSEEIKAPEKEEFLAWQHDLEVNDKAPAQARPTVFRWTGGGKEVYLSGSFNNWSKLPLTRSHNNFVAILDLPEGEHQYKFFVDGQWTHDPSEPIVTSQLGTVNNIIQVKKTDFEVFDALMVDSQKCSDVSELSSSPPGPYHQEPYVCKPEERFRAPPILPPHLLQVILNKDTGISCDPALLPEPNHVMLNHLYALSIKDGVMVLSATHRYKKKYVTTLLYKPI
Method Description: Radiolabel SAMS kinase assay, GST-AMPK from HEK293T/17 cells immobilised on glutathione-Sepharose
Condition: immobilised α2β1γ1, 0–30 µM activator
Measure: pEC50
Numbers only, as −log10 of the molar value.

Here's what some known entries look like.
[
  {
    "Molecule": "CN(C)C(=O)C1(O)CCC(Oc2nc3nc(-c4ccc(C5=CCC(C(=O)O)CC5)cc4)c(Cl)cc3[nH]2)CC1 (stereo not drawn) [MSG012]",
    "pEC50": 6.48
  },
  {
    "Molecule": "CC(=O)NC1CC=C(c2ccc(-c3nc4nc(Oc5ccc(C)c(C(=O)O)c5)[nH]c4cc3Cl)cc2)CC1 (stereo not drawn) [MSG011]",
    "pEC50": 6.26
  }
]

Exercise: What does the record list as pEC50 for O[C@@H]1CO[C@H]2[C@@H]1OC[C@H]2Oc1nc2nc(-c3ccc(-c4ccccc4)cc3)c(Cl)cc2[nH]1 [MK-8722, reference compound] ?
Solution: 5.49

----------
System Name: human GST-AMPK α1β1γ1 (Homo sapiens, UniProt Q13131+Q9Y478)
Construct: triply transfected with full-length AMPK α1 or α2 (NH2-terminal GST fusion, pDEST27 vector); full-length AMPK α1 or α2 (NH2-terminal GST fusion, pDEST27 vector), β1 or β2 (COOH-terminal FLAG fusion, pcDNA3.1 vector); FLAG (C); made in house; host or cells: HEK293T/17 cells, transient triple transfection
Sequence (Q13131 whole entry, one chain of several, the tested form may be a part): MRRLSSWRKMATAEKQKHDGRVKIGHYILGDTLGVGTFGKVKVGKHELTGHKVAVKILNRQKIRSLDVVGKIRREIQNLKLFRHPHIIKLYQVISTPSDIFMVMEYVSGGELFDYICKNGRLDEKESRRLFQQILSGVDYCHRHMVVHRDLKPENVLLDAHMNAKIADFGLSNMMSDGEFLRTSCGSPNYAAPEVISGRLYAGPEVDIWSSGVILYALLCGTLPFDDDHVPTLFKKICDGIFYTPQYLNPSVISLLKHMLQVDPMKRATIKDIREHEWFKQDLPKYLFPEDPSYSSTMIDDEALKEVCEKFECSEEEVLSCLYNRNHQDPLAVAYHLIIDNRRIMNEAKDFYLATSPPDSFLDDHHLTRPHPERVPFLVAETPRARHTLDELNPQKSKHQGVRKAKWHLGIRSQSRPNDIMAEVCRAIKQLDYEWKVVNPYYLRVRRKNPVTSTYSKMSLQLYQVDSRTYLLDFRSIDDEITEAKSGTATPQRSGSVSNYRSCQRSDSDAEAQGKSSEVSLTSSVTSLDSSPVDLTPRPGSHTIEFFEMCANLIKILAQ
Sequence (Q9Y478 whole entry, one chain of several, the tested form may be a part): as the sequence (Q9Y478 whole entry, one chain of several, the tested form may be a part) above
Method Description: Radiolabel SAMS kinase assay, GST-AMPK from HEK293T/17 cells immobilised on glutathione-Sepharose
Assay type: biochemical
Condition: 1 µM compound
Kindly state fold AMPK activation relative to vehicle for each of the entries shown.

Here's what some known entries look like.
[
  {
    "Molecule": "Cc1ccc(Oc2nc3nc(-c4ccc(-c5ccccc5O)cc4)c(Cl)cc3[nH]2)cc1C(=O)O",
    "Reported Value": "> 2.3 fold"
  },
  {
    "Molecule": "COCCc1cccc(-c2nc3nc(Oc4ccc(C)c(C(=O)O)c4)[nH]c3cc2Cl)c1",
    "Reported Value": "≤ 1.3 fold"
  },
  {
    "Molecule": "CC(=O)NC1CC=C(c2ccc(-c3nc4nc(Oc5ccc(C)c(C(=O)O)c5)[nH]c4cc3Cl)cc2)CC1 (centres unmarked)",
    "Reported Value": "> 2.2 fold"
  }
]

Exercise: What does the record list as fold AMPK activation relative to vehicle for Cc1ccc(Oc2nc3nc(-c4ccc(C5=CCC(C(=O)O)CC5)cc4)c(Cl)cc3[nH]2)cc1C(=O)O (centres unmarked) ?
Solution: > 2.2 fold

----------
System Name: human GST-AMPK α2β2γ1 (Homo sapiens, UniProt O43741+P54646)
Construct: triply transfected with full-length AMPK α1 or α2 (NH2-terminal GST fusion, pDEST27 vector); full-length AMPK α1 or α2 (NH2-terminal GST fusion, pDEST27 vector), β1 or β2 (COOH-terminal FLAG fusion, pcDNA3.1 vector); FLAG (C); made in house; host or cells: HEK293T/17 cells, transient triple transfection
Sequence (P54646 whole entry, the tested form may be a part): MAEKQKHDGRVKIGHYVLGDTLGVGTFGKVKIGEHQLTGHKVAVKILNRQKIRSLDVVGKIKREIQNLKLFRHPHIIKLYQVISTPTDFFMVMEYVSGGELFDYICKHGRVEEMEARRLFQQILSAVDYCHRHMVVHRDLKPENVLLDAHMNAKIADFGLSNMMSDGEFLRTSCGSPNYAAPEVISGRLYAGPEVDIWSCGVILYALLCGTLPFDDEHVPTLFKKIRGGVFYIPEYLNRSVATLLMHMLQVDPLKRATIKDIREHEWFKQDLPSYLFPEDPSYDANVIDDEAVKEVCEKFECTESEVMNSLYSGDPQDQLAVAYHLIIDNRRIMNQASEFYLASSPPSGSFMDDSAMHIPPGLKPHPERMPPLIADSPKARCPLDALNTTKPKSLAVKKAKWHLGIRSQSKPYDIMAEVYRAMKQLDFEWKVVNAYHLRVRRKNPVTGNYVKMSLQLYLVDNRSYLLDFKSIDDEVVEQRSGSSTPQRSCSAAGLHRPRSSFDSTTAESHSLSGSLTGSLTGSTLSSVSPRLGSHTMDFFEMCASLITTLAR
Sequence (O43741 whole entry, the tested form may be a part): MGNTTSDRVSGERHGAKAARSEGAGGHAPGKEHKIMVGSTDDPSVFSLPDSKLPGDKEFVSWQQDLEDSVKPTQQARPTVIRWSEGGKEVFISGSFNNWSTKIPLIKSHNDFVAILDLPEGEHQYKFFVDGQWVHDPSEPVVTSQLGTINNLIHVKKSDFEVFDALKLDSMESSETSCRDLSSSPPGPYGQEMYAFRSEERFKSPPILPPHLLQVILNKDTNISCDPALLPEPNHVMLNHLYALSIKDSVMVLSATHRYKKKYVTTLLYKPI
Sequence (P54619 whole entry partner, the tested form may be a part): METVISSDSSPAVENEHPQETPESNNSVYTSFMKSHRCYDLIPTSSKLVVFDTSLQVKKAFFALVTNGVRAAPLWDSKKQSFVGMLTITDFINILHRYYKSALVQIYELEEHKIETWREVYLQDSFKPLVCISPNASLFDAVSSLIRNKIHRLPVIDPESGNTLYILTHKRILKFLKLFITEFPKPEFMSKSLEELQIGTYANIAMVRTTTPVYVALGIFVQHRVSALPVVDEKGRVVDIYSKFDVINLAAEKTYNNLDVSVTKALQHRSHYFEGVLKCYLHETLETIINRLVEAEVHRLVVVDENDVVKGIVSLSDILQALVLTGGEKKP
Method Description: Radiolabel SAMS kinase assay, GST-AMPK from HEK293T/17 cells immobilised on glutathione-Sepharose
Type: biochemical
Condition: 1 µM compound
Measure: fold AMPK activation relative to vehicle

Hi team, please reply with fold AMPK activation relative to vehicle for each item in this list.
1. CC(=O)NC1CC=C(c2ccc(-c3nc4nc(Oc5ccc(C)c(C(=O)O)c5)[nH]c4cc3Cl)cc2)CC1 (centres unmarked)
2. Cc1ccc(Oc2nc3nc(-c4ccc(-c5ccccc5O)cc4)c(Cl)cc3[nH]2)cc1C(=O)O
3. Cc1ccc(Oc2nc3nc(-c4ccc(C5=CCC(C(=O)O)CC5)cc4)c(Cl)cc3[nH]2)cc1C(=O)O (centres unmarked)
4. COCCc1cccc(-c2nc3nc(Oc4ccc(C)c(C(=O)O)c4)[nH]c3cc2Cl)c1

Solution:
1. > 2.2 fold
2. > 2.3 fold
3. > 2.2 fold
4. ≤ 1.3 fold

----------
Kindly state Max. fold activation for each of the entries shown.
System Name: human GST-AMPK α1β1γ1 (Homo sapiens, UniProt Q13131+Q9Y478)
Construct: triply transfected with full-length AMPK α1 or α2 (NH2-terminal GST fusion, pDEST27 vector); full-length AMPK α1 or α2 (NH2-terminal GST fusion, pDEST27 vector), β1 or β2 (COOH-terminal FLAG fusion, pcDNA3.1 vector); FLAG (C); made in house; host or cells: HEK293T/17 cells, transient triple transfection
Method Description: Radiolabel SAMS kinase assay, GST-AMPK from HEK293T/17 cells immobilised on glutathione-Sepharose
Type: biochemical
Condition: immobilised α1β1γ1
Procedure: We generated a series of compounds to investigate whether modification of the SC4 2-hydroxybiphenyl LHS fragment affects isoform selectivity, some of which (MSG008-MSG011) are presented in Table 1. We also synthesised compound MSG012 (example I-3-54 [32]), which was reported to activate α2β2γ1 with ∼100-fold greater potency compared with α1β1γ1. […] Enzyme activity was measured by radiolabelling the synthetic SAMS peptide substrate in the absence or presence of 1 µM compound. […]
Numbers only, in fold.

Here's what some known entries look like.
[
  {
    "Compound": "CN(C)C(=O)C1(O)CCC(Oc2nc3nc(-c4ccc(C5=CCC(C(=O)O)CC5)cc4)c(Cl)cc3[nH]2)CC1 (stereo not shown)",
    "System Name": "human GST-AMPK α1β1γ1 (Homo sapiens, UniProt Q13131+Q9Y478)",
    "Measure Unit": "fold",
    "Max. fold activation": 1.9
  },
  {
    "Compound": "OCC1(c2ccc(-c3cc4nc(O[C@@H]5CO[C@H]6[C@@H]5OC[C@H]6O)[nH]c4cc3Cl)cc2)CC1 [PF-739, reference compound]",
    "System Name": "human GST-AMPK α1β1γ1 (Homo sapiens, UniProt Q13131+Q9Y478)",
    "Measure Unit": "fold",
    "Max. fold activation": 1.7
  },
  {
    "Compound": "O[C@@H]1CO[C@H]2[C@@H]1OC[C@H]2Oc1nc2nc(-c3ccc(-c4ccccc4)cc3)c(Cl)cc2[nH]1 [MK-8722, reference compound]",
    "System Name": "human GST-AMPK α1β1γ1 (Homo sapiens, UniProt Q13131+Q9Y478)",
    "Measure Unit": "fold",
    "Max. fold activation": 2.2
  }
]

Exercise: What does the record list as Max. fold activation for CC(=O)NC1CC=C(c2ccc(-c3nc4nc(Oc5ccc(C)c(C(=O)O)c5)[nH]c4cc3Cl)cc2)CC1 (stereo not shown) ?
Solution: 3.1
